Where do these numbers come from? They come from paper PMC9482650.

target: T1, GRIP1_1, Q9Y3R0
T1 sequence (Q9Y3R0 48-146, limits assumed, looked up): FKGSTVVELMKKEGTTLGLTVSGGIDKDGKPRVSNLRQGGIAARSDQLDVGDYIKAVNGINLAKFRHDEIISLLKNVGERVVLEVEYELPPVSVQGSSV
testDescription: holdup assay
Set-up: key: below the threshold = too weak to quantify, mostly under pKd 3.1 to 4
measurementSetup: plain residues with an end cap or a label only (N-terminal biotin on a linker: ttds)

| binder | pKd |
| --- | --- |
| SGSRPSATVV [HPV73-E6, Q82005] | below the threshold |
| RPLPRKVSQL [DOCK4, Q8N1I0] | 4.15 |
| SSLQSLETSV [ATP2B4, P23634] | below the threshold |
| QRQARSETLV [HPV59-E6, Q81964] | below the threshold |
